// melting point lookup, one value per entry

Here is how some compounds turned out for melting point.
>  <COMPOUND>
CCCCCCCCCCCCCCCCCCOCC(CO)Oc1nccs1 (stereo not given)

>  <melting point>
65 to 67 °C

$$$$
>  <COMPOUND>
CCCCCCCCCCc1ccc2cc(SC)c(O)cc2c1

>  <melting point>
64.4 to 65.4 °C

$$$$
>  <COMPOUND>
O=c1[nH]c2scc(Br)c2[nH]c1=O

>  <melting point>
295 to 296 °C

$$$$

Which value of melting point has been reported for `O=C(c1ccc(F)cc1)N1CCC[C@H](c2nc(-c3ccc([N+](=O)[O-])cc3)no2)C1` in the records?
162 to 164 °C

Which value of melting point has been reported for `CC(=O)NC[C@H]1CN(c2ccc(C(=O)c3cnc4ccc(Br)cn34)cc2)C(=O)O1` in the records?
230 to 232 °C

Which value of melting point has been reported for `O=c1[nH]c2cccc(OCCN3CCc4ccccc4C3)c2[nH]1` in the records?
173 to 174 °C
